Values were extracted from ChEMBL document CHEMBL1155458.

The following compounds are shown together with reported IC50 values.
Target: Acetylcholinesterase (Bos taurus, UniProt P23795)
Sequence (P23795 whole entry): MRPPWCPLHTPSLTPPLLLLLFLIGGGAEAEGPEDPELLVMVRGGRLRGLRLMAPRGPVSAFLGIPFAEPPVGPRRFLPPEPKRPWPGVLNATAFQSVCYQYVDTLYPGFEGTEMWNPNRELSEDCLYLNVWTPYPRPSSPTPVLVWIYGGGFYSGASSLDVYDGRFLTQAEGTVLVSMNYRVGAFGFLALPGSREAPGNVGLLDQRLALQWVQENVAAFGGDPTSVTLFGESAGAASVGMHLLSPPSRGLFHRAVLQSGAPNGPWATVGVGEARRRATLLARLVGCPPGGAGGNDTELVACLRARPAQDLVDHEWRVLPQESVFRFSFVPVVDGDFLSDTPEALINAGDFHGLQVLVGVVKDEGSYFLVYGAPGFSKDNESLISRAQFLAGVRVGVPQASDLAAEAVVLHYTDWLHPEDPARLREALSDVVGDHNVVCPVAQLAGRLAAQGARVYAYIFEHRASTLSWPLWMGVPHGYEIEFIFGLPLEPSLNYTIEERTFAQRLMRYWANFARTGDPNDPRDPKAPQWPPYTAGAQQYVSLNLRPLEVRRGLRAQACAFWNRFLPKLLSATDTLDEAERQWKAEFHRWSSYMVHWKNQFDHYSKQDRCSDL
property: IC50 (nM)

| structure.string | measured.value |
| --- | --- |
| COC(=O)c1cc2c(N)c3c(nc2nc1C)CCCCCC3 | 250 |
| COC(=O)c1cc2c(N)c3c(nc2nc1C)CCCC3 | 93 |
| CCOC(=O)c1cc2c(N)c3c(nc2nc1C)CCCCC3 | 310 |
| COC(=O)c1cc2c(N)c3c(nc2nc1C)CCCCC3 | 360 |
| CCOC(=O)c1cc2c(N)c3c(nc2nc1C)CCCCCC3 | 400 |
| CCOC(=O)c1cc2c(N)c3c(nc2nc1C)CCC3 | 350 |
| CCOC(=O)c1cc2c(N)c3c(nc2nc1C)CCCC3 | 60 |
| COC(=O)c1cc2c(N)c3c(nc2nc1C)CCC3 | 120 |

* * *

molecular target: Acetylcholinesterase (Bos taurus); test: Displacement of propidium iodide from AChE in bovine erythrocytes at 10 uM after 15 mins by fluorescence plate reader; type: cell-based
The following compounds are shown together with reported inhibition values.
property: inhibition (%)

| structure.string | measured.value |
| --- | --- |
| CCOC(=O)c1cc2c(N)c3c(nc2nc1C)CCCCCC3 | 10 |
| CCOC(=O)c1cc2c(N)c3c(nc2nc1C)CCCCC3 | 10 |
| COC(=O)c1cc2c(N)c3c(nc2nc1C)CCCCCC3 | 16 |
| CCOC(=O)c1cc2c(N)c3c(nc2nc1C)CCCC3 | 10 |
| COC(=O)c1cc2c(N)c3c(nc2nc1C)CCCC3 | 16 |
| COC(=O)c1cc2c(N)c3c(nc2nc1C)CCC3 | 10 |
| COC(=O)c1cc2c(N)c3c(nc2nc1C)CCCCC3 | 11 |
| CCOC(=O)c1cc2c(N)c3c(nc2nc1C)CCC3 | 20 |

* * *

Parameter 'readout' = IC50; parameter 'system' = Cholinesterase (Equus caballus).
Sequence (P81908 whole entry): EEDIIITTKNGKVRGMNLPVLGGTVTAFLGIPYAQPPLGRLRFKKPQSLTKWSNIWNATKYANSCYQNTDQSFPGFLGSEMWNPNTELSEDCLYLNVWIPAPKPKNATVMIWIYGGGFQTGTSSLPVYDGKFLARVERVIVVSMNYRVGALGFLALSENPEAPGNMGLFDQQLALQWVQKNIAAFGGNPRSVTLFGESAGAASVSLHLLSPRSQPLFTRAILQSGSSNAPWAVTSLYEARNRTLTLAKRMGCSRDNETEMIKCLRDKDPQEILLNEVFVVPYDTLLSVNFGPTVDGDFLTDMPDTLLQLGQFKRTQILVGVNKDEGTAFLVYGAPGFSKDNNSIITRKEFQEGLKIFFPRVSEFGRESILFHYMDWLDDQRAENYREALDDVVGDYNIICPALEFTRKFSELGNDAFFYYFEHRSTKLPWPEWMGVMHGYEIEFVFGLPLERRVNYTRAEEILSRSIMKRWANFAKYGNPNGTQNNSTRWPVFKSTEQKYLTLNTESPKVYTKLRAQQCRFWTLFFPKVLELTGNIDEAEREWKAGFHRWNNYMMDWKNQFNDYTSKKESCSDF

| structure.string | IC50 [µM] |
| --- | --- |
| COC(=O)c1cc2c(N)c3c(nc2nc1C)CCCCC3 | 0.49 |
| CCOC(=O)c1cc2c(N)c3c(nc2nc1C)CCCCCC3 | 5.3 |
| COC(=O)c1cc2c(N)c3c(nc2nc1C)CCCC3 | 3.4 |
| COC(=O)c1cc2c(N)c3c(nc2nc1C)CCCCCC3 | 4.07 |
| COC(=O)c1cc2c(N)c3c(nc2nc1C)CCC3 | 5 |
| CCOC(=O)c1cc2c(N)c3c(nc2nc1C)CCCCC3 | 2.1 |
| CCOC(=O)c1cc2c(N)c3c(nc2nc1C)CCC3 | 39 |
